Known pKi of a selection of compounds
- system-tested: full-length hepatitis C NS3 protease with NS4A cofactor (Hepatitis C virus genotype 1a (isolate H77) (HCV), UniProt P27958)
- Sequence (P27958 1027-1657): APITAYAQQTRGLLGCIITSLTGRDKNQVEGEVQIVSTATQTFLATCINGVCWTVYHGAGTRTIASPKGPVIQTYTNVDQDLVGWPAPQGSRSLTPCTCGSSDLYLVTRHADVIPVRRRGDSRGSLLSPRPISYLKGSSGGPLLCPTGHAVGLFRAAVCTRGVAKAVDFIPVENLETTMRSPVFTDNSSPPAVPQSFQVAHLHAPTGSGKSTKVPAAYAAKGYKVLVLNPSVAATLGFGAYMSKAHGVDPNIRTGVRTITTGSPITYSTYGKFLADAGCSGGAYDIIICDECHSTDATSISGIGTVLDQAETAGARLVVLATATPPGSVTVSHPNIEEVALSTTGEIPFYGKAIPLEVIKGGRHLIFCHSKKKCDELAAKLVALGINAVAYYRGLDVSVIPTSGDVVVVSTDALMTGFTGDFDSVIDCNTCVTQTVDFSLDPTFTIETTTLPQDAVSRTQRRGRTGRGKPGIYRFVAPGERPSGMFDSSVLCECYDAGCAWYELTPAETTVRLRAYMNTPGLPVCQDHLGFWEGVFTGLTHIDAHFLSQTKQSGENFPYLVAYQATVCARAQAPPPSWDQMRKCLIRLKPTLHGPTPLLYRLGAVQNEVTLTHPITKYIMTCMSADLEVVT
- assay-explanation: HCV NS3/4A protease inhibition (enzymatic) assay
pKi: −log10 of the molar value.

compound | pKi
COc1ccc2c(O[C@@H]3C[C@H]4C(=O)N[C@]5(C(=O)NS(=O)(=O)C6CC6)C[C@H]5/C=C\CCCCOC(=O)N4C3)cc(-c3ccccc3)nc2c1 [Compound 23] | 9.70
COc1ccc2c(O[C@@H]3C[C@H]4C(=O)N[C@]5(C(=O)O)C[C@H]5/C=C\CCCCOC(=O)N4C3)cc(-c3ccccc3)nc2c1 [Compound 22] | 5.97
COc1ccc2c(O[C@@H]3C[C@H]4C(=O)N[C@]5(C(=O)O)C[C@H]5/C=C\CCCCCOC(=O)N4C3)cc(-c3ccccc3)nc2c1 [Compound 24] | 7.40

----------
- system-tested: full-length hepatitis C NS3 protease with NS4A cofactor (Hepatitis C virus genotype 1a (isolate H77) (HCV))
- assay-explanation: HCV NS3/4A protease inhibition (enzymatic) assay

compound | Ki
COc1ccc2c(O[C@@H]3C[C@H]4C(=O)N[C@]5(C(=O)NS(=O)(=O)C6CC6)C[C@H]5/C=C\CCCCCOC(=O)N4C3)cc(-c3ccccc3)nc2c1 [Compound 25] | 2.4 nM
COc1ccc2c(O[C@@H]3C[C@H]4C(=O)N[C@]5(C(=O)NS(=O)(=O)C6CC6)C[C@H]5/C=C\CCCCOC(=O)N4C3)nc(Cl)cc2c1 [Compound 17] | 43 nM
COc1ccc2c(O[C@@H]3C[C@H]4C(=O)N[C@]5(C(=O)O)C[C@H]5/C=C\CCCCOC(=O)N4C3)nc(Cl)cc2c1 [Compound 16] | 1000 nM
